# SUBJECT OF TEST: 5-enolpyruvylshikimate-3-phosphate synthase (EPSPS) (Escherichia coli, UniProt P0A6D3)
# Sequence (P0A6D3 whole entry): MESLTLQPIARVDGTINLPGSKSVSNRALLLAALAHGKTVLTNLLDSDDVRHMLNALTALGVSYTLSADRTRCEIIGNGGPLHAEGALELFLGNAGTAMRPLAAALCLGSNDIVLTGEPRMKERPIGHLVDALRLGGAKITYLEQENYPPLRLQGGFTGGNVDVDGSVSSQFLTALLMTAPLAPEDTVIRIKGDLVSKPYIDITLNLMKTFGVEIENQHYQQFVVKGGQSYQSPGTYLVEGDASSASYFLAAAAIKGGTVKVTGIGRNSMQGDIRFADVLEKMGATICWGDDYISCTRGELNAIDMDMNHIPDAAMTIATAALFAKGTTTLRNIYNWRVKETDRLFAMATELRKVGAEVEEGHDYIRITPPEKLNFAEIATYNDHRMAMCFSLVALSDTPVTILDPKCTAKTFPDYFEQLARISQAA
MEASURED PARAMETER: IC50 (µM)
State the answer as a number, implicitly in µM.

Given O=C(O)CNCP(=O)(O)O [glyphosate, N-phosphonomethyl-glycine] , state its recorded IC50.
3

====

# SUBJECT OF TEST: UniProtKB P9WPY5
# Sequence (P9WPY5 whole entry): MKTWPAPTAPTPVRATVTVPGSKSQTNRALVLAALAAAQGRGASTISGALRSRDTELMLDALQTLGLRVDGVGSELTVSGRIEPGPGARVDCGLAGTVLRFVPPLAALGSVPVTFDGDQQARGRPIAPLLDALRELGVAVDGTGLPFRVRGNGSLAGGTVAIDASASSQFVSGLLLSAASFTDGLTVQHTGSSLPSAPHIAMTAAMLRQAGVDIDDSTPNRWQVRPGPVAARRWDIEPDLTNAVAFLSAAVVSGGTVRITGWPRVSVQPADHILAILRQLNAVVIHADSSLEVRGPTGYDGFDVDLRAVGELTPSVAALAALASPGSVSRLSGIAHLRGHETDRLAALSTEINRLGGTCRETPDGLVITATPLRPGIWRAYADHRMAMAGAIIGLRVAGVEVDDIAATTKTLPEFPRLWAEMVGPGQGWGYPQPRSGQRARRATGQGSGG
MEASURED PARAMETER: pIC50
Note on pIC50: it is the negative log10 of concentration, concentration in mol/L.

So what pIC50 did O=C(O)CNCP(=O)(O)O [glyphosate, N-phosphonomethyl-glycine] get with UniProtKB P9WPY5?
3.59
